Experiment: Liver microsomal stability, rat
Type: in vitro ADME
Conditions: male, pH 7.4, liver microsomes
readout_kind: microsomal CLint

Q: For the molecule shown here, CC(C)Cc1cc(F)c(-c2nn[nH]n2)c(N2CCN(Cc3ccccn3)[C@@H](C)C2)c1 , give the reported microsomal CLint.
A: < 17.3 µL/min/mg

Q: For the molecule shown here, CCCCNC(=O)NS(=O)(=O)c1ccc(C)cc1N1CCN(Cc2nc3ccccc3n2C)CC1 , give the reported microsomal CLint.
A: 23 µL/min/mg

Q: For the molecule shown here, Cc1ccnc(CN2CCN(c3cc(CC(C)C)cc(F)c3-c3nn[nH]n3)C[C@@H]2C)c1 , give the reported microsomal CLint.
A: 24.8 µL/min/mg

Q: For the molecule shown here, CC(C)Cc1ccc(-c2nn[nH]n2)c(N2CCN(Cc3ncccn3)CC2)c1 , give the reported microsomal CLint.
A: 7 µL/min/mg

Taken from patent US20240368133A1.
